Target Of Assay: T1, recombinant human VISTA (His-tagged) (human, UniProt Q9H7M9 33-194)
T1 construct: bought soluble protein (Sino Biological); also called hVISTA; human VISTA polypeptide
Assay Notes: ELISA, plate coated with human VISTA; unit nM from the legend paragraph 698
Reported Property: EC50 (nM)

>>> numeric_value("anti-VISTA clone V4-C1 IgG1 (antibody, V domains shown) VH: QVQLQESGPGLVKPSDTLSLTCTVSGYSITSDYAWNWIRQTPGKGLEWIGYITYSGYISYNPSLRSRVTISRDTSKNQFSLKLSSVTAADTAVYSCARALYYPWYFDVWGTGTTVTVSS VL: EIVITQSPATLSLSPGERATLSCRASSSVGYIHWYQQKPGQAPRPLIYATSNRATGIPARFSGSGSGTDNTLTISSLEPEDSAVYYCQQWSSYPPITFGGGTKLEVKR")
0.042
>>> numeric_value("anti-VISTA clone V4-C30 IgG1 (antibody, V domains shown) VH: QVQLQESGPGLVKPSDTLSLTCTVSGYSITSDYTWNWIRQTPGKGLEWIGHITYSGSVSYNPSLRSRVTISRDTSKNQFSLKLSSVTAADTATYSCARALYYPWYFDVWGTGTTVTVSS VL: EIVLTQSPATLSLSPGERATLSCRASSSVGYIHWYQQKPGQAPRPLIYATYYRATGIPARFSGSGSGTDNTLTISSLEPEDSAVYYCQQWSSYPPITFGGGTKLEVKR")
0.088
